Test system: T-47D breast
Experiment: NCI tumour cell line growth inhibition, 48 h
Reported GI50 is given for each of the following compounds.
attribute_measured: GI50

compound	result
O=C(OCc1ncc(-c2ccc(C(F)(F)F)cc2)c(NC2CCCCCC2)n1)c1c(F)c(F)c(F)c(F)c1F	1.97 µM
Nc1nc(N)c2cc(NCc3ccc(Cl)c(Cl)c3)ccc2n1	1.72 µM
Cc1ccc(N(CC(=O)Nc2ccc(S(=O)(=O)N3CCC(N4CCCC4)CC3)cc2)S(=O)(=O)c2ccc(Cl)cc2)cc1	1.74 µM
CC(C)(C)CC(C)(C)NCc1cc(C(C)(C)C)cc(CNC(C)(C)CC(C)(C)C)c1O	2.09 µM
Cn1c2ccc(Br)cc2c2c3c(c4c5ccccc5[nH]c4c21)C(=O)N(O)C3=O	0.109 µM
CN1C(=O)N[C@H]2[C@@H]3NC(=O)c4ccc(Br)n4[C@@H]3C[C@]21O	0.0313 µM
N#CC1=C(N)NC(N2CCOCC2)=NC12Nc1ccccc1N2	59.1 µM
CCN(CC)CCCNC(=O)c1c2c(n3ccccc13)C(=O)c1ncccc1C2=O	1.34 µM
COc1ccccc1CNCCCN1C(=O)c2ccc3c4c(ccc(c24)C1=O)C(=O)N(CCCCNCCCN)C3=O	1.13 µM
N#CCN/C=C\C(=O)c1ccc(Cl)cc1	33.9 µM
CC(C)(C)[Si](C)(C)OC1[C@@H](O[Si](C)(C)C(C)(C)C)[C@@H](CNC(=O)NC(=O)CCl)O[C@H]1n1cnc2c(NC(=O)Nc3ccccc3)ncnc21 (stereo partly specified)	1.01 µM
COc1nc(N)nc2c1ncn2C1OC(CO)C(O)C1O (stereo unspecified)	> 5000 µM
CNC(=O)Cc1nc(-c2cccc(NS(=O)(=O)c3c(F)cccc3F)c2F)c(-c2ccnc(Nc3ccccc3)n2)s1	6.23 µM
COc1ccc(OC)c2c1[nH]c(=O)c1c3ncccc3cn21	3.54 µM
O=Cc1ccc(-c2ccc(-c3nc4ccccc4o3)cc2)o1	34.8 µM
NC(=O)c1cccc(Nc2nccc(Nc3cccc4[nH]ncc34)n2)c1	2.99 µM
